Every entry's value here was drawn from patent US9920017B2.

A collection of compounds and their measured log P neutral
- ASSAY METHOD TEXT: Determination of log P values by HPLC (reversed-phase C18)
- Type: physicochemical
- EXPERIMENTAL SETUP: HPLC, reversed-phase C18, 55° C.; final compounds table
- Description: 1) Description of Method for Determination of the Log P Values ([…]) The log P values given in the table were determined in accordance with EEC Directive 79/831 Annex V.A8 by HPLC (High Performance Liquid Chromatography) using a reversed-phase column (C 18). […] Calibration was effected with unbranched alkan-2-ones (having 3 to 16 carbon atoms) with known log P values (log P values determined on the basis of the retention times by linear interpolation between two successive alkanones). […]
MEASUREMENT TYPE: log P neutral

>>> observed_value("O=C(Nc1ncn(-c2c(F)cccc2F)n1)c1ccccc1Br")
1.80
>>> observed_value("Cc1cccc(Cl)c1-n1cnc(NC(=O)c2ccccc2Cl)n1")
2.04
>>> observed_value("O=C(Nc1ncn(-c2c(F)cccc2F)n1)c1cc(F)ccc1C(F)(F)F")
2.09
>>> observed_value("O=C(Nc1ncn(-c2c(F)cccc2I)n1)c1ccccc1I")
2.15
>>> observed_value("O=C(Nc1ncn(-c2ccccc2Br)n1)c1ccccc1I")
2.09
>>> observed_value("COc1cccc(C)c1-n1cnc(NC(=O)c2ccccc2Cl)n1")
1.95
>>> observed_value("O=C(Nc1ncn(-c2cc(Cl)ccc2Cl)n1)c1ccccc1C(F)(F)F")
2.55
>>> observed_value("O=C(Nc1ncn(-c2c(F)c(F)c(F)c(F)c2F)n1)c1ccccc1I")
2.43
>>> observed_value("O=C(Nc1ncn(-c2c(F)cccc2F)n1)c1ccccc1OC(F)(F)F")
2.14
>>> observed_value("O=C(Nc1ncn(-c2c(F)cccc2F)n1)c1nccnc1C(F)(F)F")
1.73
>>> observed_value("O=C(Nc1ncn(-c2c(F)cccc2I)n1)c1ccccc1C(F)(F)F")
2.21
>>> observed_value("O=C(Nc1ncn(-c2ccccc2F)n1)c1ccccc1Cl")
1.88
>>> observed_value("O=C(Nc1ncn(-c2ccc(Cl)cc2Cl)n1)c1ccccc1C(F)(F)F")
2.58
>>> observed_value("O=C(Nc1ncn(-c2ccccc2Cl)n1)c1ccccc1C(F)(F)F")
2.10
>>> observed_value("O=C(Nc1ncn(-c2c(F)c(F)cc(F)c2F)n1)c1ccccc1C(F)(F)F")
2.23
>>> observed_value("O=C(Nc1ncn(-c2ccccc2C(F)(F)F)n1)c1ccccc1Cl")
2.06
>>> observed_value("O=C(Nc1ncn(-c2c(F)c(F)cc(F)c2F)n1)c1ccccc1Cl")
2.04
>>> observed_value("O=C(Nc1ncn(-c2ccccc2Cl)n1)c1ccccc1Br")
1.97
